experiment: Metabolic stability in human liver microsomes; assay type: in vitro ADME; settings: pH 7.4, NADPH, 37° C.
# if measured half-life at 0.25 μM < 20 h: 1  # else: 0

>  <smiles_input>
[2H]C([2H])(c1c[nH]c2cccc(OC(C)=O)c12)C([2H])([2H])[N+](C)(C)C.[I-]

>  <group>
1

$$$$
>  <smiles_input>
[2H]C([2H])(c1c[nH]c2cccc(O)c12)C([2H])([2H])[N+](C)(C([2H])([2H])[2H])C([2H])([2H])[2H].[I-]

>  <group>
0

$$$$
>  <smiles_input>
[2H]C([2H])(c1c[nH]c2cccc(O)c12)C([2H])([2H])[N+](C([2H])([2H])[2H])(C([2H])([2H])[2H])C([2H])([2H])[2H].[I-]

>  <group>
0

$$$$
>  <smiles_input>
[2H]C([2H])(c1c[nH]c2cccc(O)c12)C([2H])([2H])[N+](C)(C)CCC.[I-]

>  <group>
1

$$$$
>  <smiles_input>
[2H]C([2H])(c1c[nH]c2cccc(OC(C)=O)c12)C([2H])([2H])[N+](C)(C)CC.[I-]

>  <group>
1

$$$$
>  <smiles_input>
[2H]C([2H])(c1c[nH]c2cccc(O)c12)C([2H])([2H])[N+](C)(C)C.[I-]

>  <group>
1

$$$$

Let's switch to this compound now.
Would you kindly verify if half-life at 0.25 μM of `[2H]C([2H])(c1c[nH]c2cccc(OC(C)=O)c12)C([2H])([2H])[N+](C)(C)CCC.[I-]` is strictly less than 20 h?
1

---

assay: Metabolic stability in human liver microsomes; format: in vitro ADME; details: NADPH, 37° C.
endpoint_name: CLint (μL/min/mg protein)
Answers are plain numbers, in μL/min/mg protein.

Recorded results for 2 molecules are shown here.
>  <molecule>
CC[N+](C)(C)CCc1c[nH]c2cccc(OC(C)=O)c12.[I-] [reference compound E, 4-OAc-Dimethylethyltryptamine iodide, reference compound]

>  <endpoint_name>
CLint (μL/min/mg protein)

>  <obs_value>
46.4

$$$$
>  <molecule>
CC[N+](C)(C)CCc1c[nH]c2cccc(O)c12.[I-] [reference compound B, 4-OH-Dimethylethyltryptamine iodide, reference compound]

>  <endpoint_name>
CLint (μL/min/mg protein)

>  <obs_value>
5.41

$$$$

Value sought for every listed molecule: CLint (μL/min/mg protein).
1. C[N+](C)(C)CCc1c[nH]c2cccc(O)c12.[I-] [reference compound A, 4-OH-Trimethyltryptamine iodide, reference compound]
2. CCC[N+](C)(C)CCc1c[nH]c2cccc(OC(C)=O)c12.[I-] [reference compound F, 4-OAc-Dimethylpropyltryptamine iodide, reference compound]
3. CC(=O)Oc1cccc2[nH]cc(CC[N+](C)(C)C)c12.[I-] [reference compound D, 4-OAc-Trimethyltryptamine iodide, reference compound]
4. COc1ccc2c(c1)[C@]13CCCC[C@@H]1[C@H](C2)N(C)CC3 [dextromethorphan, reference compound]

[6.81, 62.7, 28.3, 54.9]

---

experiment: Metabolic stability in human liver microsomes; type: in vitro ADME; details: pH 7.4, NADPH, 37° C.
Please go through the items and note down their log10 half-life at 0.25 μM.
// do not treat as linear: log10 of half-life at 0.25 μM, unit min

// known answers, use as guide
>  <compound>
[2H]C([2H])(c1c[nH]c2cccc(OC(C)=O)c12)C([2H])([2H])[N+](CC)(C([2H])([2H])[2H])C([2H])([2H])[2H].[I-] [Compound 12]

>  <obs_value>
1.53

$$$$
>  <compound>
[2H]C([2H])(c1c[nH]c2cccc(O)c12)C([2H])([2H])[N+](CC)(C([2H])([2H])[2H])C([2H])([2H])[2H].[I-] [Compound 6]

>  <obs_value>
2.50

$$$$

Count: 3. Required value per item: log10 half-life at 0.25 μM.
1. [2H]C([2H])(c1c[nH]c2cccc(OC(C)=O)c12)C([2H])([2H])[N+](C)(C([2H])([2H])[2H])C([2H])([2H])[2H].[I-] [Compound 11]
2. [2H]C([2H])(c1c[nH]c2cccc(OC(C)=O)c12)C([2H])([2H])[N+](C([2H])([2H])[2H])(C([2H])([2H])[2H])C([2H])([2H])[2H].[I-] [Compound 10]
3. [2H]C([2H])(c1c[nH]c2cccc(O)c12)C([2H])([2H])[N+](C)(C)CC.[I-] [Compound 2]

1.68
1.67
2.69
